Where these numbers come from: PubChem BioAssay AID1645848

details: buffer; pH 7.4; 6.0 h; 150.0 µM
Exercise: for every item that follows, state its recorded solubility kinetic.

Qu. Looking for the measured solubility kinetic of Cc1noc(C)c1-c1cc(-c2ccc3c(c2)C(=O)NC3)cn2cncc12 , can you help?
Ans. > 76 µg/mL

Qu. Looking for the measured solubility kinetic of COc1cccc(-n2ncc3c2CCCC3NC(=O)c2ccccn2)c1 (stereo not given) , can you help?
Ans. > 51 µg/mL

Qu. Looking for the measured solubility kinetic of COc1cccc(CNc2ccc(S(=O)(=O)Nc3nccs3)cc2)c1N , can you help?
Ans. > 58 µg/mL

Qu. Looking for the measured solubility kinetic of O=C(NCc1ccccc1)c1cn2cc(-c3ccccc3)sc2n1 , can you help?
Ans. < 1 µg/mL

Qu. Looking for the measured solubility kinetic of Fc1cc(Nc2nc(-c3ccncc3)nc3ccccc23)ccc1OC(F)(F)F , can you help?
Ans. < 1 µg/mL

* * *

Exercise: for every item that follows, state its recorded solubility kinetic.
details: buffer; pH 7.4; 6.0 h; 150.0 µM

Qu. Looking for the measured solubility kinetic of COCCOc1cnc2ccn([C@H](C)c3nnc4c(F)cc(-c5cnn(C)c5)cn34)c(=O)c2c1 , can you help?
Ans. > 68 µg/mL

Qu. Looking for the measured solubility kinetic of Cc1cc(-c2nc(Nc3ccc(F)c(F)c3)c3ccccc3n2)cc(C)n1 , can you help?
Ans. < 1 µg/mL

Qu. Looking for the measured solubility kinetic of Cc1cnc(-c2ccccc2C(C)C)nc1NCC1CCN(c2cccnc2)CC1 , can you help?
Ans. < 1 µg/mL

* * *

Exercise: for every item that follows, state its recorded solubility kinetic.
settings: buffer; pH 7.4; 6.0 h; 150.0 µM

Qu. Looking for the measured solubility kinetic of Cn1ncnc1[C@H]1c2n[nH]c(=O)c3cc(F)cc(c23)N[C@@H]1c1ccc(F)cc1 , can you help?
Ans. > 38 µg/mL

Qu. Looking for the measured solubility kinetic of CN(C)c1cccc(-c2cc(N3CCC(C(N)=O)CC3)ncn2)c1 , can you help?
Ans. > 48 µg/mL

Qu. Looking for the measured solubility kinetic of CN(Cc1cnc2nc(N)nc(N)c2n1)c1ccc(C(=O)N[C@@H](CCC(=O)O)C(=O)O)cc1 , can you help?
Ans. > 67 µg/mL

* * *

settings: buffer; pH 7.4; 6.0 h; 150.0 µM
OBSERVABLE: solubility kinetic

Qu. Looking for the measured solubility kinetic of CC(=O)c1ccc(N2CCN(S(=O)(=O)c3cc4c(cc3Cl)NC(=O)C4)CC2)cc1 , can you help?
Ans. 1.16 µg/mL

Qu. Looking for the measured solubility kinetic of Cc1ccc(O)c(-c2cc(-c3ccccc3C)[nH]n2)c1 , can you help?
Ans. < 1 µg/mL

Qu. Looking for the measured solubility kinetic of Cc1noc(C)c1-c1ccc2ncnc(N3CCC(C(=O)O)CC3)c2c1 , can you help?
Ans. > 52 µg/mL

Qu. Looking for the measured solubility kinetic of COc1cccc(Nc2ncc(-c3cccc(N(C)C)c3)c3c2OCC3)c1 , can you help?
Ans. < 1 µg/mL

Qu. Looking for the measured solubility kinetic of COc1ccc(-n2nc(C)c([C@@H]3C=C[C@@H](NCc4ccc(F)cc4)C3)c2C)cc1 , can you help?
Ans. 42 µg/mL

Qu. Looking for the measured solubility kinetic of Cc1cccc(-n2ncc3c2CCCC3NC(=O)c2c(F)ccc(F)c2F)c1C (configuration not stated) , can you help?
Ans. 7.25 µg/mL

Qu. Looking for the measured solubility kinetic of COc1cc(-c2nc(Nc3ccc(F)c(F)c3)c3ccccc3n2)cc(OC)n1 , can you help?
Ans. < 1 µg/mL

Qu. Looking for the measured solubility kinetic of Cc1ccc(-c2cc(C(=O)Nc3ccc(S(N)(=O)=O)cc3)c3ccccc3n2)cc1C , can you help?
Ans. < 1 µg/mL

Qu. Looking for the measured solubility kinetic of CCOC(=O)c1c[nH]c2c3c(ccc2c1=O)CCCC3 , can you help?
Ans. 34 µg/mL

Qu. Looking for the measured solubility kinetic of O=S(=O)(Nc1nccs1)c1ccc(NCc2cccc(Cl)c2O)cc1 , can you help?
Ans. 46.1 µg/mL

Qu. Looking for the measured solubility kinetic of Cc1cccc2oc(NC3=NC(c4[nH]ncc4Cl)C4=C(CCCC4=O)N3)nc12 (configuration not stated) , can you help?
Ans. < 1 µg/mL

Qu. Looking for the measured solubility kinetic of O=C(NC1CCCCC1)N1Cc2[nH]cnc2C[C@H]1c1nc(-c2cccc([N+](=O)[O-])c2)no1 , can you help?
Ans. 14.2 µg/mL

Qu. Looking for the measured solubility kinetic of COC(=O)c1ccc(O)c2ncc(N3CCN(C)CC3)cc12 , can you help?
Ans. > 30 µg/mL

Qu. Looking for the measured solubility kinetic of CC(=O)NCCNC(=O)c1ccc(-c2ncc3cnc(-c4cccc(F)c4)cn23)cc1 , can you help?
Ans. > 92 µg/mL

Qu. Looking for the measured solubility kinetic of CCOC(=O)c1ccnc(CNCC(=O)N(CC)CCN(C)C)c1 , can you help?
Ans. > 50 µg/mL

Qu. Looking for the measured solubility kinetic of NC1CCN(C(=O)C2CCCN(c3nc(-c4ccccc4)nc4c3CCC4)C2)CC1 (configuration not stated) , can you help?
Ans. > 40 µg/mL

Qu. Looking for the measured solubility kinetic of CCN1CCN(CCCOc2ccc(-c3ccccc3)cc2)CC1 , can you help?
Ans. > 48 µg/mL

Qu. Looking for the measured solubility kinetic of Cc1ccccc1CSc1nc2ncc(Br)cc2[nH]1 , can you help?
Ans. < 1 µg/mL

Qu. Looking for the measured solubility kinetic of Cc1cn2c(N)c(Cl)cc(C(=O)NCC3CCN(CC(C)C)CC3)c2n1 , can you help?
Ans. 39.2 µg/mL

Qu. Looking for the measured solubility kinetic of c1ccc2c(N3CCOCC3)nc(-c3ccncc3)nc2c1 , can you help?
Ans. > 43 µg/mL

Qu. Looking for the measured solubility kinetic of Cc1nn(-c2ccccc2)c2nc(C3CC3)cc(C(=O)Nc3ccc(F)cc3)c12 , can you help?
Ans. < 1 µg/mL

Qu. Looking for the measured solubility kinetic of CSc1cc2c(s1)c1cnn(Cc3cccc(N)c3)c(=O)c1n2C , can you help?
Ans. < 1 µg/mL

Qu. Looking for the measured solubility kinetic of O=C(NCCCn1ccnc1)c1nc(-c2ccccc2)cc2[nH]ccc12 , can you help?
Ans. > 77 µg/mL

Qu. Looking for the measured solubility kinetic of O=C(NCCCCc1ccccc1)C1CCN(c2nc(-c3ccc(Br)cc3)cs2)CC1 , can you help?
Ans. 7.06 µg/mL

Qu. Looking for the measured solubility kinetic of CCOc1ccc(CCNC(=O)c2cc3sccc3n2Cc2ccc(Cl)c(F)c2)cc1OCC , can you help?
Ans. < 1 µg/mL

Qu. Looking for the measured solubility kinetic of CN(C)c1ccc2cc(C(=O)N[C@@H](CCCN=C(N)CCl)C(=O)NCc3ccccc3)ccc2c1 , can you help?
Ans. 52.4 µg/mL

Qu. Looking for the measured solubility kinetic of Cc1cc(SCC(=O)c2ccccc2)n2ncc(-c3ccccc3)c2n1 , can you help?
Ans. < 1 µg/mL

Qu. Looking for the measured solubility kinetic of O=C1Nc2ccccc2/C1=C\c1ccc(C(=O)O)cc1 , can you help?
Ans. > 39 µg/mL

Qu. Looking for the measured solubility kinetic of CCc1ccc(NC(=O)c2[nH]c(C)c(C(C)=O)c2C)cc1S(=O)(=O)Nc1ccc(Br)cc1 , can you help?
Ans. 7.72 µg/mL

Qu. Looking for the measured solubility kinetic of C[C@@H](O)CNC(C)(C)CC(=O)N[C@@H]1CCc2ccccc2N(Cc2ccc(-c3ccccc3-c3nn[nH]n3)cc2)C1=O , can you help?
Ans. > 84 µg/mL

Qu. Looking for the measured solubility kinetic of O=c1cc(-c2ccc(O)c(O)c2)oc2cc(O)cc(O)c12 , can you help?
Ans. > 100 µg/mL

Qu. Looking for the measured solubility kinetic of N#Cc1nc(-c2cccc3ccccc23)oc1NC1CNC1 , can you help?
Ans. 9.62 µg/mL

Qu. Looking for the measured solubility kinetic of Cc1cccc(-c2cc(NC(=O)c3ccccc3C)n(-c3ccccc3)n2)c1 , can you help?
Ans. < 1 µg/mL

Qu. Looking for the measured solubility kinetic of COc1c2c(c3c(c1CCC(=O)O)OC(C)(C)C=C3)OC(C)(C)C=C2 , can you help?
Ans. > 51 µg/mL

Qu. Looking for the measured solubility kinetic of CC(=O)Nc1nc(-c2ccc3c(c2)CCN3C(=O)c2ccccc2C)c(C)s1 , can you help?
Ans. < 1 µg/mL

Qu. Looking for the measured solubility kinetic of CC[C@H](Nc1ncnc2nc[nH]c12)c1nc2cccc(F)c2c(=O)n1-c1ccccc1 , can you help?
Ans. > 61 µg/mL

Qu. Looking for the measured solubility kinetic of COc1cccc(CNc2ccc(S(=O)(=O)Nc3ccc(N4CCNCC4)nc3)cc2)c1O , can you help?
Ans. 55.9 µg/mL

* * *

details: buffer; pH 7.4; 6.0 h; 150.0 µM
OBSERVABLE: solubility kinetic

Qu. Looking for the measured solubility kinetic of O=C(CCc1ccccc1)NC(c1cccs1)c1cc(Cl)c2cccnc2c1O (stereo not drawn) , can you help?
Ans. < 1 µg/mL

Qu. Looking for the measured solubility kinetic of O=C(O)Cn1c(C(=O)Nc2nc(-c3ccccc3Cl)cs2)cc2ccccc21 , can you help?
Ans. > 61 µg/mL

Qu. Looking for the measured solubility kinetic of Cc1ccccc1C(=O)N1CCc2cc(-c3csc(NC(=O)Cc4ccc5c(c4)OCO5)n3)ccc21 , can you help?
Ans. < 1 µg/mL

Qu. Looking for the measured solubility kinetic of CC(C)(C#N)c1ccc(N2C(=O)OCc3cnc4ccc(-c5cnc6ccccc6c5)cc4c32)cc1 , can you help?
Ans. < 1 µg/mL

Qu. Looking for the measured solubility kinetic of CCOc1ccc(Nc2nc(C)c(NC(=O)c3ccc(C)cc3)c(Nc3ccc(OCC)cc3)n2)cc1 , can you help?
Ans. < 1 µg/mL

Qu. Looking for the measured solubility kinetic of CCN(CC)S(=O)(=O)c1ccc2oc(C(=O)Nc3ccc(Br)cc3F)c(C)c2c1 , can you help?
Ans. < 1 µg/mL

Qu. Looking for the measured solubility kinetic of O=C(Nc1nnc(-c2cccs2)o1)c1ccc(Cl)cc1 , can you help?
Ans. 6.09 µg/mL

Qu. Looking for the measured solubility kinetic of CCN(CC)S(=O)(=O)c1ccc(N2CCCC2)c(NS(=O)(=O)c2ccc(C)cc2)c1 , can you help?
Ans. 4.02 µg/mL

Qu. Looking for the measured solubility kinetic of CCOc1ccc(CCNC(=O)c2ccc(C(=O)c3ccccc3)cc2)cc1OCC , can you help?
Ans. < 1 µg/mL

Qu. Looking for the measured solubility kinetic of O=C(Cc1ccc(Cl)c(Cl)c1)Nc1ccc(S(=O)(=O)Nc2nncs2)cc1 , can you help?
Ans. > 65 µg/mL

Qu. Looking for the measured solubility kinetic of CC(C(O)c1ccc(O)cc1)N1CCC(Cc2ccccc2)CC1 (stereo not drawn) , can you help?
Ans. > 48 µg/mL

Qu. Looking for the measured solubility kinetic of Nc1nc2c(s1)C(c1cccc(Cl)c1Cl)CC(=O)N2 (stereo not drawn) , can you help?
Ans. < 1 µg/mL

Qu. Looking for the measured solubility kinetic of Cc1ccccc1CN1C2=NCCN2C(=O)C2=C1CCN(Cc1ccccc1)C2 , can you help?
Ans. 26.7 µg/mL

Qu. Looking for the measured solubility kinetic of Cc1ccc(CNCc2cn[nH]c2-c2ccc(C)cc2)cc1 , can you help?
Ans. 30 µg/mL

Qu. Looking for the measured solubility kinetic of CCOc1ccc(CCNC(=O)c2cc3ccccc3n2Cc2ccc(Cl)c(F)c2)cc1OCC , can you help?
Ans. < 1 µg/mL

Qu. Looking for the measured solubility kinetic of Oc1c(CN2CCN(c3ccccn3)CC2)cc(Cl)c2cccnc12 , can you help?
Ans. 11.4 µg/mL

Qu. Looking for the measured solubility kinetic of C#CCNC(=O)c1nc(-c2ccc([S+](C)(=O)[O-])cc2)c2ccccn12 , can you help?
Ans. 1.27 µg/mL

Qu. Looking for the measured solubility kinetic of CSc1ccc(-c2cnc(N3CCC(C(N)=O)CC3)s2)cc1 , can you help?
Ans. < 1 µg/mL

Qu. Looking for the measured solubility kinetic of Cc1ccc(-c2cc(C(=O)Nc3cccc(S(N)(=O)=O)c3)c3ccccc3n2)cc1C , can you help?
Ans. < 1 µg/mL

Qu. Looking for the measured solubility kinetic of O=S(=O)(Nc1ccc(S(=O)(=O)Nc2nccs2)cc1)c1ccc2ccccc2c1 , can you help?
Ans. 33.2 µg/mL

Qu. Looking for the measured solubility kinetic of COc1ccc(CN2CCc3nc(N4CCN(c5ccc(F)cc5)CC4)ncc3C2)c(OC)c1OC , can you help?
Ans. < 1 µg/mL

Qu. Looking for the measured solubility kinetic of COc1cccc(Cn2c(=O)n(-c3cccc(Cl)c3C)c(=O)c3c4c(sc32)CN(C(C)=O)CC4)c1 , can you help?
Ans. < 1 µg/mL

Qu. Looking for the measured solubility kinetic of O=C(Nc1ccc(N2CCN(C(=O)c3ccccc3F)CC2)cc1)c1cncc(Br)c1 , can you help?
Ans. 3.75 µg/mL

Qu. Looking for the measured solubility kinetic of O=C(C1CC(=O)N(c2n[nH]c3ccccc23)C1)N1CCC(c2noc3cc(F)ccc23)CC1 (stereo not drawn) , can you help?
Ans. 2.36 µg/mL

Qu. Looking for the measured solubility kinetic of Cc1ccc2cccc(NC(=O)c3ccc(OC(C)C)cc3)c2n1 , can you help?
Ans. < 1 µg/mL

Qu. Looking for the measured solubility kinetic of CCNC(=O)N1CCCN(c2ccc(C(=O)NCCc3ccc(Cl)cc3Cl)cc2NC(=O)c2cccc(Cl)c2)CC1 , can you help?
Ans. < 1 µg/mL

Qu. Looking for the measured solubility kinetic of Cn1nnnc1Sc1ncnc2scc(Br)c12 , can you help?
Ans. 1.27 µg/mL

Qu. Looking for the measured solubility kinetic of COc1ccccc1C(=O)Nc1ccccc1C(=O)Nc1cccc(SC(F)(F)F)c1 , can you help?
Ans. < 1 µg/mL

Qu. Looking for the measured solubility kinetic of Cc1cc2c(-c3cccc(O)c3)nc(-c3c(C)noc3C)cc2[nH]1 , can you help?
Ans. < 1 µg/mL

Qu. Looking for the measured solubility kinetic of Cc1ccc(N(C)S(=O)(=O)c2ccc(-c3cnc(C4CC4)o3)cc2)cc1 , can you help?
Ans. < 1 µg/mL

Qu. Looking for the measured solubility kinetic of Fc1cc(Nc2nc(-c3ccncc3)nc3ccccc23)ccc1-c1cc(F)c(F)c(F)c1 , can you help?
Ans. < 1 µg/mL

Qu. Looking for the measured solubility kinetic of O=C(COc1ccccc1)NCC(c1cccs1)S(=O)(=O)c1ccc(Cl)cc1 (stereo not drawn) , can you help?
Ans. 3.83 µg/mL

Qu. Looking for the measured solubility kinetic of CC(C)(C)c1cc(NC(=O)Nc2ccc(-c3cn4c(n3)sc3cc(OCCN5CCOCC5)ccc34)cc2)no1 , can you help?
Ans. < 1 µg/mL
